# SYSTEM NAME: BCL2 F104I (Homo sapiens, UniProt P10415, F104I)
# TEST PROTOCOL: TR-FRET competitive binding assay, BCL2 F104I
# SETUP CONDITIONS: Ki determined from IC50, read-out: TR_FRET EKI_Bcl2 F104I
I'd be grateful if you could share measured pKi for these entries.
# pKi is unitless: minus log10 of the molar concentration; print number only

# input Fill in the recorded pKi for this compound, with BCL2 F104I (Homo sapiens, UniProt P10415, F104I) as test system: Cc1c(N(C(=O)c2cc(-c3cc4c(cc3C(=O)N3Cc5ccccc5C[C@H]3CN3CCCCC3)CN(C(=O)Cc3ccc(OCCN5CCC(F)CC5)cc3F)CC4)n(C)c2C)c2ccc(O)cc2)cc(C#N)n1C [Example 115]
# output 9.52

# input Fill in the recorded pKi for this compound, with BCL2 F104I (Homo sapiens, UniProt P10415, F104I) as test system: Cc1c(N(C(=O)c2cc(-c3cc4c(cc3C(=O)N3Cc5ccccc5C[C@H]3C)CN(C(=O)Cc3ccc(OCCN5CCC(F)(F)C5)cc3)CC4)n(C)c2C)c2ccc(O)cc2)cc(C#N)n1C [Example 50]
# output 8.33

# input Fill in the recorded pKi for this compound, with BCL2 F104I (Homo sapiens, UniProt P10415, F104I) as test system: Cc1c(N(C(=O)c2cc(-c3cc4c(cc3C(=O)N3Cc5ccccc5C[C@H]3C)CN(C(=O)Cc3cccc(N5CCN6CCOC[C@@H]6C5)c3)CC4)n(C)c2C)c2ccccc2)cc(C#N)n1C [Example 8]
# output 8.46

# input Fill in the recorded pKi for this compound, with BCL2 F104I (Homo sapiens, UniProt P10415, F104I) as test system: Cc1c(N(C(=O)c2cc(-c3cc4c(cc3C(=O)N3Cc5ccccc5C[C@H]3CN3CCCCC3)CN(C(=O)Cc3ccc(OCCN5CCOCC5)cc3F)CC4)n(C)c2C)c2ccc(O)cc2)cc(C#N)n1C [Example 43]
# output 9.80

# input Fill in the recorded pKi for this compound, with BCL2 F104I (Homo sapiens, UniProt P10415, F104I) as test system: Cc1c(N(C(=O)c2cc(-c3cc4c(cc3C(=O)N3Cc5ccccc5C[C@H]3CN3CCCCC3)CN(C(=O)Cc3ccc(OCCN5CCOCC5)cc3F)CC4)n3ccccc23)c2ccc(O)cc2)cc(C#N)n1C [Example 136]
# output 9.77
